# assayed_target: USP14 (UniProt P54578)
# Sequence (P54578 whole entry, the tested form may be a part): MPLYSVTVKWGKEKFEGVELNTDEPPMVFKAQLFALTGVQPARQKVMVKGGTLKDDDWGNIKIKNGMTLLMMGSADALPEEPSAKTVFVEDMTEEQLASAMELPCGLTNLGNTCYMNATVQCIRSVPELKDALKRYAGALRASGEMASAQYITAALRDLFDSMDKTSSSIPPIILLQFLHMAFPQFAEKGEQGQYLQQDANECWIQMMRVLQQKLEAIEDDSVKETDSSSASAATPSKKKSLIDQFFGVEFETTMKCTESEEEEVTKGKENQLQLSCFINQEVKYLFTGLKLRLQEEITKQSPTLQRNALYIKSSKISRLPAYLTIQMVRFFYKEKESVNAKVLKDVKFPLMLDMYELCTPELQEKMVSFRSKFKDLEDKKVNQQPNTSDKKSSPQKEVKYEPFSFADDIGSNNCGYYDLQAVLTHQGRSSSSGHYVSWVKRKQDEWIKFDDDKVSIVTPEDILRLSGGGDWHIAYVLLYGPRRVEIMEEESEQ
# measurement_notes: log2 ratio of Biotin-Ahx-Ub-VS probe labelling (fragment/DMSO); higher = less target engagement (more negative = stronger competition), active = hit call of the paper (q ≤ 0.05, log2 ratio ≤ -1)
# recorded_conditions: compound concentration: 200 uM; treatment time: 3 h
Tag: 1 if measured log2 ratio of Biotin-Ahx-Ub-VS probe labelling is not below -0.2, 0 if it is.

{"compound": "Cc1ccc(C)c(Oc2ccc(CNC(=O)CCl)cn2)c1.Cl", "assayed_target": "USP14 (UniProt P54578)", "cat": 0}
{"compound": "Cl.O=C(CCl)NC1(c2ncccn2)CCC1", "assayed_target": "USP14 (UniProt P54578)", "cat": 1}
{"compound": "O=C(CCl)Nc1cccc2ncccc12", "assayed_target": "USP14 (UniProt P54578)", "cat": 1}
{"compound": "O=C(CCl)Nc1cc2c(cc1Cl)OCCCO2", "assayed_target": "USP14 (UniProt P54578)", "cat": 1}
{"compound": "Cc1ccc(CC(CO)CNC(=O)CCl)cc1 (centres undefined)", "assayed_target": "USP14 (UniProt P54578)", "cat": 0}
{"compound": "Cc1ccc(C(=O)NCCNC(=O)CCl)cc1", "assayed_target": "USP14 (UniProt P54578)", "cat": 0}
{"compound": "O=C(CCl)N1CCOCC1C1CC1 (centres undefined)", "assayed_target": "USP14 (UniProt P54578)", "cat": 0}
{"compound": "O=C(CCl)N1CCC(c2ccn[nH]2)C1 (centres undefined)", "assayed_target": "USP14 (UniProt P54578)", "cat": 1}
{"compound": "O=C(CCl)NCc1cccc(N2CCCC2=O)c1", "assayed_target": "USP14 (UniProt P54578)", "cat": 1}
{"compound": "CS(=O)(=O)c1ccc(NC(=O)CCl)cc1", "assayed_target": "USP14 (UniProt P54578)", "cat": 1}
{"compound": "Cc1cccc(N2CCC(NC(=O)CCl)C2=O)c1 (centres undefined)", "assayed_target": "USP14 (UniProt P54578)", "cat": 0}
{"compound": "O=C(CCl)Nc1ccc(N2CCCC2=O)cc1", "assayed_target": "USP14 (UniProt P54578)", "cat": 1}
{"compound": "CC(NC(=O)CCl)c1cccc2ccccc12 (centres undefined)", "assayed_target": "USP14 (UniProt P54578)", "cat": 0}
{"compound": "Cc1cc(NC(=O)CCl)n(-c2ccccc2)n1", "assayed_target": "USP14 (UniProt P54578)", "cat": 1}
{"compound": "O=C(CCl)N1CCOC(CCc2ccccc2)C1 (centres undefined)", "assayed_target": "USP14 (UniProt P54578)", "cat": 0}
{"compound": "CCc1c[nH]c(CNC(=O)CCl)n1.Cl", "assayed_target": "USP14 (UniProt P54578)", "cat": 0}
{"compound": "O=C(CCl)N(C1CCCC1)C1CCS(=O)(=O)C1 (centres undefined)", "assayed_target": "USP14 (UniProt P54578)", "cat": 1}
{"compound": "CN(C)S(=O)(=O)c1ccccc1CNC(=O)CCl", "assayed_target": "USP14 (UniProt P54578)", "cat": 1}
{"compound": "Cl.Cn1ncc2c1CC(NC(=O)CCl)CC2 (centres undefined)", "assayed_target": "USP14 (UniProt P54578)", "cat": 1}
{"compound": "Cc1nc(-c2cccc(NC(=O)CCl)c2)cs1", "assayed_target": "USP14 (UniProt P54578)", "cat": 0}
{"compound": "Cc1ncc2c(n1)CCN(C(=O)CCl)C2", "assayed_target": "USP14 (UniProt P54578)", "cat": 1}
{"compound": "COc1ccc(CN(C)C(=O)CCl)cc1", "assayed_target": "USP14 (UniProt P54578)", "cat": 0}
{"compound": "O=C(CCl)NC1CCS(=O)(=O)c2ccccc21 (centres undefined)", "assayed_target": "USP14 (UniProt P54578)", "cat": 1}
{"compound": "O=C(CCl)NCC1(c2ccccc2)CC1", "assayed_target": "USP14 (UniProt P54578)", "cat": 1}
{"compound": "O=C(CCl)N1CCOC2(CCC2)CC1", "assayed_target": "USP14 (UniProt P54578)", "cat": 0}
{"compound": "N#Cc1ccc(CNC(=O)CCl)cc1", "assayed_target": "USP14 (UniProt P54578)", "cat": 1}
{"compound": "O=C(CCl)N[C@H]1CC[C@@H](CO)CC1", "assayed_target": "USP14 (UniProt P54578)", "cat": 0}
{"compound": "O=C(CCl)NCCc1cccc2ccccc12", "assayed_target": "USP14 (UniProt P54578)", "cat": 1}
